Taken from ChEMBL document CHEMBL3600323.

- Target Of Assay: Keap1/Nrf2 (Homo sapiens, UniProt Q14145)
- Sequence (Q16236 whole entry, the tested form may be a part): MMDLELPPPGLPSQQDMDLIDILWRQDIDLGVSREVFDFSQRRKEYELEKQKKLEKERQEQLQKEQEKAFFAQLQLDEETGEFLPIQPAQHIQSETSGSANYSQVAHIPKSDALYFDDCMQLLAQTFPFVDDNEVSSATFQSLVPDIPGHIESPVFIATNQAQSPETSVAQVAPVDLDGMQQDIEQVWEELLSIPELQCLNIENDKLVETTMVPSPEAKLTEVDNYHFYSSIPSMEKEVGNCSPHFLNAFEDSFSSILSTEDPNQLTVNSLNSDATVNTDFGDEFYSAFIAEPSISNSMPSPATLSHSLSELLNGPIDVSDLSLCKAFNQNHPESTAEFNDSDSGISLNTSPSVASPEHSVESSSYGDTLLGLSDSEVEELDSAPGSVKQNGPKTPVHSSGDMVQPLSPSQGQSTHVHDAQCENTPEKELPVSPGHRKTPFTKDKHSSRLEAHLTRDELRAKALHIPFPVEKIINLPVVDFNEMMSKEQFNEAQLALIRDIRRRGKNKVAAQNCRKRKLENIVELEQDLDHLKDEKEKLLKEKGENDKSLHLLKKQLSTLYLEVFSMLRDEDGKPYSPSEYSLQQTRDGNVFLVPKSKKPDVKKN
- Sequence (Q14145 whole entry, the tested form may be a part): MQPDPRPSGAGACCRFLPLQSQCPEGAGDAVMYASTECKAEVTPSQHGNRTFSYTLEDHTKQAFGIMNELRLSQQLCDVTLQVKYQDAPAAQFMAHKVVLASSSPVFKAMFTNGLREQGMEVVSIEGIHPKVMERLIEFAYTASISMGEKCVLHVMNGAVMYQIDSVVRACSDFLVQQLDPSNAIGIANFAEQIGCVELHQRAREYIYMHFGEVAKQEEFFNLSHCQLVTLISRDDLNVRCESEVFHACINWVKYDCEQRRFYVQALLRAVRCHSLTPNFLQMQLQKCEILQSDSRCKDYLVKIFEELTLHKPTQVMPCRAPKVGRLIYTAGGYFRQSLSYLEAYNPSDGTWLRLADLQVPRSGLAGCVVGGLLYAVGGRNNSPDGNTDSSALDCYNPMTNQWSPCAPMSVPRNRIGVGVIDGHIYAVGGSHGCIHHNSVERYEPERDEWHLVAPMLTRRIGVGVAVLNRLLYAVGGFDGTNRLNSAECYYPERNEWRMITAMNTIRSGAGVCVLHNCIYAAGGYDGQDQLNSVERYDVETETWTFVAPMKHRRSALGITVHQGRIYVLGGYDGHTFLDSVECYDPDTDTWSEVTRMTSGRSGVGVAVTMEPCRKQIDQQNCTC
- Test Method Notes: Inhibition of Keap1 Kelch domain-Nrf2 ETGE (unknown origin) protein-protein interaction incubated for 30 mins by fluorescence polarization competition assay
For each of the molecules below, state its pIC50.
Reminder that pIC50 means the negative base-10 logarithm of the concentration expressed in mol/L.

IN: Reported pIC50 for Cc1ccc(S(=O)(=O)N(CC(=O)O)c2ccc(N(CC(=O)O)S(=O)(=O)c3ccc(C)cc3)cc2)cc1 : what is it?
OUT: 6.02

IN: Same thing, different molecule: COc1ccc(S(=O)(=O)N(CC(=O)O)c2ccc(N(CC(=O)O)S(=O)(=O)c3ccc(OC)cc3)c(C)c2)cc1
OUT: 5.78

IN: Same thing, different molecule: Cc1ccc(S(=O)(=O)N(CC(=O)O)c2ccc(N(CC(=O)O)S(=O)(=O)c3ccc(C)cc3)c3ccccc23)cc1
OUT: 7.74

IN: Same thing, different molecule: COc1ccc(S(=O)(=O)N(CC(=O)O)c2ccc(N(CC(=O)O)S(=O)(=O)c3ccc(OC)cc3)c(OC)c2)cc1
OUT: 6.22

* * *

- Test Method Notes: Solubility of the compound
- Type: physicochemical
- Cond: read-out: solubility
For each of the molecules below, state its solubility.
The reply should be a number in µg/mL, with the unit left off.

IN: Reported solubility for O=C(O)CN(c1ccc(N(CC(=O)O)S(=O)(=O)c2ccc(C(F)(F)F)cc2)c2ccccc12)S(=O)(=O)c1ccc(C(F)(F)F)cc1 : what is it?
OUT: 12.3

IN: Same thing, different molecule: O=C(O)CN(c1ccc(N(CC(=O)O)S(=O)(=O)c2ccc(Br)cc2)c2ccccc12)S(=O)(=O)c1ccc(Br)cc1
OUT: 5.7

IN: Same thing, different molecule: N#Cc1ccc(S(=O)(=O)N(CC(=O)O)c2ccc(N(CC(=O)O)S(=O)(=O)c3ccc(C#N)cc3)c3ccccc23)cc1
OUT: 1100

IN: Same thing, different molecule: O=C(O)CN(c1ccc(N(CC(=O)O)S(=O)(=O)c2cccc3ccccc23)c2ccccc12)S(=O)(=O)c1cccc2ccccc12
OUT: 5

IN: Same thing, different molecule: COc1ccc(S(=O)(=O)N(CC(=O)O)c2ccc(N(CC(=O)O)S(=O)(=O)c3ccc(OC)cc3)c3ccccc23)cc1
OUT: 388

IN: Same thing, different molecule: O=C(O)CN(c1ccc(N(CC(=O)O)S(=O)(=O)c2ccc(OC(F)(F)F)cc2)c2ccccc12)S(=O)(=O)c1ccc(OC(F)(F)F)cc1
OUT: 12.3

IN: Same thing, different molecule: COc1cccc(S(=O)(=O)N(CC(=O)O)c2ccc(N(CC(=O)O)S(=O)(=O)c3cccc(OC)c3)c3ccccc23)c1
OUT: 16

* * *

- Target Of Assay: Keap1/Nrf2 (Homo sapiens, UniProt Q14145)
- Test Method Notes: Inhibition of Keap1 Kelch domain-Nrf2 ETGE (unknown origin) protein-protein interaction incubated for 30 mins by fluorescence polarization competition assay
For each of the compounds below, state its pIC50.
Reminder that pIC50 means the negative base-10 logarithm of the concentration expressed in mol/L.

IN: Reported pIC50 for O=C(O)CN(c1ccc(N(CC(=O)O)S(=O)(=O)c2cccc3ccccc23)c2ccccc12)S(=O)(=O)c1cccc2ccccc12 : what is it?
OUT: 7.32

IN: Same thing, different compound: O=C(O)CN(c1ccc(N(CC(=O)O)S(=O)(=O)c2ccc(Cl)cc2)c2ccccc12)S(=O)(=O)c1ccc(Cl)cc1
OUT: 7.37

IN: Same thing, different compound: CC(C)(C)c1ccc(S(=O)(=O)N(CC(=O)O)c2ccc(N(CC(=O)O)S(=O)(=O)c3ccc(C(C)(C)C)cc3)c3ccccc23)cc1
OUT: 7.30

IN: Same thing, different compound: CCCCc1ccc(S(=O)(=O)N(CC(=O)O)c2ccc(N(CC(=O)O)S(=O)(=O)c3ccc(CCCC)cc3)c3ccccc23)cc1
OUT: 7.37

* * *

For each of the compounds below, state its pIC50.
- Target Of Assay: Keap1/Nrf2 (Homo sapiens, UniProt Q14145)
- Test Method Notes: Inhibition of Keap1 Kelch domain-Nrf2 ETGE (unknown origin) protein-protein interaction incubated for 30 mins by fluorescence polarization competition assay
Reminder that pIC50 means the negative base-10 logarithm of the concentration expressed in mol/L.

IN: Lab note: need pIC50 for O=C(O)CN(c1ccc(N(CC(=O)O)S(=O)(=O)c2ccccc2)c2ccccc12)S(=O)(=O)c1ccccc1 on Keap1/Nrf2 (Homo sapiens, UniProt Q14145), anyone have it?
OUT: 7.46

IN: Same thing, different compound: O=C(O)CN(c1ccc(N(CC(=O)O)S(=O)(=O)c2ccc(OC(F)(F)F)cc2)c2ccccc12)S(=O)(=O)c1ccc(OC(F)(F)F)cc1
OUT: 6.75

IN: Same thing, different compound: COc1ccc(S(=O)(=O)N(CC(=O)O)c2cccc3c(N(CC(=O)O)S(=O)(=O)c4ccc(OC)cc4)cccc23)cc1
OUT: 5.73

IN: Same thing, different compound: N#Cc1ccc(S(=O)(=O)N(CC(=O)O)c2ccc(N(CC(=O)O)S(=O)(=O)c3ccc(C#N)cc3)c3ccccc23)cc1
OUT: 6.93

* * *

- Target Of Assay: Keap1/Nrf2 (Homo sapiens)
- Test Method Notes: Inhibition of Keap1 Kelch domain-Nrf2 ETGE (unknown origin) protein-protein interaction incubated for 30 mins by fluorescence polarization competition assay
For each of the molecules below, state its pIC50.
Reminder that pIC50 means the negative base-10 logarithm of the concentration expressed in mol/L.

IN: Reported pIC50 for COc1ccc(S(=O)(=O)N(CC(=O)O)c2ccc(N(CC(=O)O)S(=O)(=O)c3ccc(OC)cc3)cc2)cc1 : what is it?
OUT: 5.84

IN: Same thing, different molecule: COc1cccc(S(=O)(=O)N(CC(=O)O)c2ccc(N(CC(=O)O)S(=O)(=O)c3cccc(OC)c3)c3ccccc23)c1
OUT: 7.18

IN: Same thing, different molecule: COc1ccc(S(=O)(=O)N(CC(=O)O)c2cc(C)c(N(CC(=O)O)S(=O)(=O)c3ccc(OC)cc3)cc2C)cc1
OUT: 4.99

IN: Same thing, different molecule: Cc1cc(C)c(S(=O)(=O)N(CC(=O)O)c2ccc(N(CC(=O)O)S(=O)(=O)c3c(C)cc(C)cc3C)c3ccccc23)c(C)c1
OUT: 6.01

IN: Same thing, different molecule: O=C(O)CN(c1ccc(N(CC(=O)O)S(=O)(=O)c2ccc(F)cc2)c2ccccc12)S(=O)(=O)c1ccc(F)cc1
OUT: 7.27

IN: Same thing, different molecule: O=C(O)CN(c1ccc(N(CC(=O)O)S(=O)(=O)c2ccc(Br)cc2)c2ccccc12)S(=O)(=O)c1ccc(Br)cc1
OUT: 7.44

IN: Same thing, different molecule: O=C(O)CN(c1ccc(N(CC(=O)O)S(=O)(=O)c2ccc(C(F)(F)F)cc2)c2ccccc12)S(=O)(=O)c1ccc(C(F)(F)F)cc1
OUT: 6.91

* * *

- Test Method Notes: Lipophilicity, log D of the compound
- Format: physicochemical
- Cond: octanol/water
Parameter: logD

IN: Reported logD for Cc1ccc(S(=O)(=O)N(CC(=O)O)c2ccc(N(CC(=O)O)S(=O)(=O)c3ccc(C)cc3)c3ccccc23)cc1 : what is it?
OUT: 0.93

IN: Same thing, different molecule: O=C(O)CN(c1ccc(N(CC(=O)O)S(=O)(=O)c2cccc3ccccc23)c2ccccc12)S(=O)(=O)c1cccc2ccccc12
OUT: 3.9

IN: Same thing, different molecule: N#Cc1ccc(S(=O)(=O)N(CC(=O)O)c2ccc(N(CC(=O)O)S(=O)(=O)c3ccc(C#N)cc3)c3ccccc23)cc1
OUT: 0.65

IN: Same thing, different molecule: O=C(O)CN(c1ccc(N(CC(=O)O)S(=O)(=O)c2ccccc2)c2ccccc12)S(=O)(=O)c1ccccc1
OUT: 0.45

IN: Same thing, different molecule: CC(C)(C)c1ccc(S(=O)(=O)N(CC(=O)O)c2ccc(N(CC(=O)O)S(=O)(=O)c3ccc(C(C)(C)C)cc3)c3ccccc23)cc1
OUT: 5.2

IN: Same thing, different molecule: COc1cccc(S(=O)(=O)N(CC(=O)O)c2ccc(N(CC(=O)O)S(=O)(=O)c3cccc(OC)c3)c3ccccc23)c1
OUT: 0.89

IN: Same thing, different molecule: O=C(O)CN(c1ccc(N(CC(=O)O)S(=O)(=O)c2ccc(Cl)cc2)c2ccccc12)S(=O)(=O)c1ccc(Cl)cc1
OUT: 2.11

IN: Same thing, different molecule: O=C(O)CN(c1ccc(N(CC(=O)O)S(=O)(=O)c2ccc(OC(F)(F)F)cc2)c2ccccc12)S(=O)(=O)c1ccc(OC(F)(F)F)cc1
OUT: 0.93
